- SYSTEM_TESTED: PCSK9 (Homo sapiens)
- Construct: biotin (biotinylated)
- Sequence (Q8NBP7 153-692): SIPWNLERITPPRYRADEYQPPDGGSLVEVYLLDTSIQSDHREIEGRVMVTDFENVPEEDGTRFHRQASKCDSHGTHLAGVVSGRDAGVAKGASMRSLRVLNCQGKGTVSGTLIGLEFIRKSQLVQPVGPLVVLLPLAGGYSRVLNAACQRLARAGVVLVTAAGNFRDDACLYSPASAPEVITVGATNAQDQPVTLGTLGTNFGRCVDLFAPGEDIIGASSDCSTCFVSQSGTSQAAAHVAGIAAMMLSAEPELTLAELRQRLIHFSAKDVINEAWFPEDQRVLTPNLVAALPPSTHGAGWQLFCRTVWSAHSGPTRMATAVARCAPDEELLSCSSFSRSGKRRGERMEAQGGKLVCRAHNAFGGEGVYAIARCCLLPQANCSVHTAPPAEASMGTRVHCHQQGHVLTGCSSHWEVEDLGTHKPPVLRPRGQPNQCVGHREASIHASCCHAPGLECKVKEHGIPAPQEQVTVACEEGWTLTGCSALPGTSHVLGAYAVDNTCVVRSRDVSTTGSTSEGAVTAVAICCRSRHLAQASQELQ
- ASSAY_PROTOCOL: PCSK9 Alexa FRET Standard assay (displacement of AlexaFluor647-tagged cyclic peptide Reagent A)
- Format: binding
- TEST_PARAMETERS: 0.5 nM PCSK9, 20 nM AF cyclic peptide Reagent A
*1 amine or outer side, *2 acyl side, *3 side chain or, on linkers, in order; H or OH if unused. Where a SMILES comes first, the peptide text is derived from it. Bridges are numbered along the chain shown (N, C = ends). [ ]: non-standard residue; d: D form. X6 = C[C@@H](O)[C@H](CC(=O)[C@H](Cc1cnc[nH]1)N[*:1])C(=O)[*:2]; αMeNva(5-ylidene) = C[C@@](CCC=[*:3])(N[*:1])C(=O)[*:2]; Ala(4-isoquinolinyl) = N[C@@H](Cc1cncc2ccccc12)C(=O)O; Trp(βS-Me) = C[C@@H](c1c[nH]c2ccccc12)[C@H](N)C(=O)O; Phe(3-CF3) = N[C@@H](Cc1cccc(C(F)(F)F)c1)C(=O)O; Trp(7-aza) = N[C@@H](Cc1c[nH]c2ncccc12)C(=O)O; X1 = C[C@@](CCCCC=[*:3])(N[*:1])C(=O)[*:2]; mXylylene = c1cc(C[*:1])cc(C[*:2])c1; Aad = N[C@@H](CCCC(=O)O)C(=O)O; aThr = C[C@H](O)[C@H](N)C(=O)O; Tle = CC(C)(C)[C@H](N)C(=O)O; αMeK = C[C@](N)(CCCCN)C(=O)O; αMeV = CC(C)[C@](C)(N)C(=O)O; αMeS = C[C@](N)(CO)C(=O)O; Api = NC1(C(=O)O)CCNCC1; Nva = CCC[C@H](N)C(=O)O; Aib = CC(C)(N)C(=O)O; Mpa = O=C(O)CCS
Measured IC50 of individual entries

COMPOUND	IC50
CCC[C@@H]1NC(=O)[C@H](Cc2cncc3ccccc23)NC(=O)[C@H]([C@@H](C)O)CC(=O)[C@H](Cc2cnc[nH]2)NC(=O)[C@H](Cc2ccc(O)cc2)NC(=O)[C@H](C(C)(C)C)NC(=O)CCSCc2cccc(c2)CSC[C@@H](C(N)=O)NC(=O)[C@H]([C@@H](C)O)NC(=O)[C@H](CCC)NC(=O)[C@H](Cc2ccc(O)cc2)NC(=O)[C@H](CCC(=O)O)NC1=O [Compound 052] ([Mpa][Tle]Y[X6][Ala(4-isoquinolinyl)][Nva]EY[Nva]TC-NH2; linker 1-11 via mXylylene)	100 to 1000 nM
CCC[C@@H]1NC(=O)[C@H](Cc2ccc(O)cc2)NC(=O)[C@H](C)NC(=O)[C@]2(C)CC/C=C\CCCC[C@](C)(NC1=O)C(=O)N[C@H](C(N)=O)CCCCNC(=O)CCC[C@H](NC(C)=O)C(=O)N[C@@H](C(C)(C)C)C(=O)N[C@@H](Cc1ccc(O)cc1)C(=O)N1CCC[C@H]1C(=O)N[C@@H]([C@@H](C)O)C(=O)N[C@@H](Cc1c[nH]c3ncccc13)C(=O)N2 [Compound 104] (Ac-[Aad][Tle]YPT[Trp(7-aza)][αMeNva(5-ylidene)]AY[Nva][X1]K-NH2; lactam 1-12; staple (Z) 7-11)	100 to 1000 nM
CC(=O)N[C@H]1CSCc2cccc(c2)CSC[C@H](C(N)=O)NC(=O)[C@H]([C@@H](C)O)NC(=O)[C@](C)(C(C)C)NC(=O)[C@H](Cc2ccc(O)cc2)NC(=O)[C@H](C)NC(=O)[C@](C)(CO)NC(=O)[C@H](Cc2c[nH]c3ncccc23)NC(=O)[C@H]([C@@H](C)O)NC(=O)[C@@H]2CCCN2C(=O)[C@H](Cc2ccc(O)cc2)NC(=O)[C@H](C(C)(C)C)NC1=O [Compound 031] (Ac-C[Tle]YPT[Trp(7-aza)][αMeS]AY[αMeV]T[dC]-NH2; linker 1-12 via mXylylene)	1 to 100 nM
CC(=O)N[C@H]1CSCc2cccc(c2)CSC[C@H](C(N)=O)NC(=O)[C@H]([C@H](C)O)NC(=O)[C@](C)(C(C)C)NC(=O)[C@H](Cc2ccc(O)cc2)NC(=O)[C@H](C)NC(=O)C(C)(C)NC(=O)[C@H](Cc2c[nH]c3ncccc23)NC(=O)[C@H]([C@@H](C)O)NC(=O)[C@@H]2CCCN2C(=O)[C@H](Cc2cccc(C(F)(F)F)c2)NC(=O)[C@H](C(C)(C)C)NC1=O [Compound 041] (Ac-C[Tle][Phe(3-CF3)]PT[Trp(7-aza)][Aib]AY[αMeV][aThr][dC]-NH2; linker 1-12 via mXylylene)	21000 to 50000 nM

Log: PCSK9 (Homo sapiens), compound CC(C)[C@]1(C)NC(=O)[C@H](Cc2ccc(O)cc2)NC(=O)[C@H](C)NC(=O)[C@](C)(CCCCN)NC(=O)[C@H](Cc2c[nH]c3ncccc23)NC(=O)[C@H]([C@@H](C)O)NC(=O)[C@@H]2CCCN2C(=O)[C@H](Cc2ccc(O)cc2)NC(=O)[C@H](C(C)(C)C)NC(=O)CCSCc2cccc(c2)CSC[C@@H](C(N)=O)NC(=O)[C@H]([C@@H](C)O)NC1=O [Compound 023] ([Mpa][Tle]YPT[Trp(7-aza)][αMeK]AY[αMeV]TC-NH2; linker 1-12 via mXylylene) , IC50 = 1 to 100 nM

Log: PCSK9 (Homo sapiens), compound CC1O[C@@H](C)[C@@H]2NC(=O)[C@@]1(C)NC(=O)[C@H](Cc1ccc(O)cc1)NC(=O)[C@H](C)NC(=O)C(C)(C)NC(=O)[C@H](Cc1c[nH]c3ncccc13)NC(=O)[C@H]([C@@H](C)O)NC(=O)[C@@H]1CCCN1C(=O)[C@H](Cc1ccc(O)cc1)NC(=O)[C@H](C(C)(C)C)NC(=O)CCSCc1cccc(c1)CSC[C@@H](C(N)=O)NC2=O (some centres unmarked) , IC50 = 1 to 100 nM

Log: PCSK9 (Homo sapiens), compound CC(=O)N[C@H]1CSCc2cccc(c2)CSC[C@H](C(N)=O)NC(=O)[C@H]([C@@H](C)O)NC(=O)[C@](C)(C(C)C)NC(=O)[C@H](Cc2ccc(O)cc2)NC(=O)[C@H](C)NC(=O)C2(CCNCC2)NC(=O)[C@H](Cc2c[nH]c3ncccc23)NC(=O)[C@H]([C@@H](C)O)NC(=O)[C@@H]2CCCN2C(=O)[C@H](Cc2ccc(O)cc2)NC(=O)[C@H](C(C)(C)C)NC1=O [Compound 034] (Ac-C[Tle]YPT[Trp(7-aza)][Api]AY[αMeV]T[dC]-NH2; linker 1-12 via mXylylene) , IC50 = 1 to 100 nM

Log: PCSK9 (Homo sapiens), compound CCC[C@@H]1NC(=O)[C@H](Cc2c[nH]c3ncccc23)NC(=O)[C@H]([C@@H](C)O)NC(=O)[C@H](Cc2cnc[nH]2)NC(=O)[C@H](Cc2ccc(O)cc2)NC(=O)[C@H]([C@@H](C)c2c[nH]c3ccccc23)NC(=O)CCSCc2cccc(c2)CSC[C@@H](C(N)=O)NC(=O)[C@H]([C@@H](C)O)NC(=O)[C@H](CCC)NC(=O)[C@H](Cc2ccc(O)cc2)NC(=O)[C@H](CCC(=O)O)NC1=O [Compound 097] ([Mpa][Trp(βS-Me)]YHT[Trp(7-aza)][Nva]EY[Nva]TC-NH2; linker 1-12 via mXylylene) , IC50 = 1 to 100 nM
